PROPERTY_MEASURED: logP

a. CC(C)OC(=O)CC(C(=O)OC(C)C)S(=O)(=O)c1ccc([N+](=O)[O-])cc1 (centres undefined)
b. CCOC(=O)CC(CC(=O)OCC)(C(=O)OC(C)C)S(=O)(=O)c1ccc([N+](=O)[O-])cc1
Sorting by logP in descending order, would a or b appear first? Select an item and report its label. b

a. CC(C(=O)OC1CCCCC1)S(=O)(=O)c1ccc([N+](=O)[O-])cc1 (centres undefined)
b. CCCCC(CCCC)(C(=O)OC(C)C)S(=O)(=O)c1ccc([N+](=O)[O-])cc1
Field: lower recorded logP (choose a or b ) Answer by stating the label of the chosen item. a

I. CC(C)COC(=O)C(=Cc1ccccc1)S(=O)(=O)c1ccc([N+](=O)[O-])cc1
II. C=CCC(C)(C(=O)OCC)S(=O)(=O)c1ccc([N+](=O)[O-])cc1 (centres undefined)
Pick the one with the larger logP: I vs II Please respond with the label that marks your chosen entry. I
(I: 3.68, II: 2.3)

* * *

test: method code SF-AS, from DOI: 10.1080/02772240109358997
PROPERTY_MEASURED: logP

SMILES_STRUCTURE	TEST_VALUE
CC(C)OC(=O)C(=Cc1ccccc1)S(=O)(=O)c1ccc(Cl)cc1	4.18

1. COC(=O)C(C)(C)S(=O)(=O)c1ccc([N+](=O)[O-])cc1
2. CCC(CC)(C(=O)OC)S(=O)(=O)c1ccc([N+](=O)[O-])cc1
Given the listed items, does 1 or 2 have the lesser reported logP? Returns: label corresponding to the selected item. 1
(1: 1.38, 2: 2.24)

* * *

assay: method code SF-AS, from DOI: 10.1080/02772240109358997
PROPERTY_MEASURED: logP

COMPOUND	PROPERTY_MEASURED	TEST_VALUE
CCOC(=O)C(=Cc1ccccc1)S(=O)(=O)c1ccc([N+](=O)[O-])cc1	logP	3.2
CCOC(=O)C(C)(c1cccc2ccccc12)S(=O)(=O)c1ccc([N+](=O)[O-])cc1 (stereo not drawn)	logP	4.4
CCOC(=O)C(Cc1ccccc1)(Cc1ccccc1)S(=O)(=O)c1ccc([N+](=O)[O-])cc1	logP	3.4
